Reference for the values: the supplement of paper PMC9112550

Test system: Escherichia coli TOP10
assay_explanation: shrunken log2 fold change of peptide-encoding DNA abundance (4.5 h post-induction vs induction); higher = less antimicrobial activity (less host growth inhibition)
test_context: time post-induction: 4.5 h; library: site-saturation at positions 5, 18, 19, 20
A collection of sequences and their measured shrunken log2 fold change
// keep it numeric: no unit symbol after the value

The cases that follow already have their shrunken log2 fold change on record.
[[record]]
sequence_code = "RRIRVRPPRLPRPRPRPFHRPRP"
system = "Escherichia coli TOP10"
quantity_measured = "shrunken log2 fold change"
quantitative_readout = -0.0437

[[record]]
sequence_code = "RRIRMRPPRLPRPRPRPPMPPRP"
system = "Escherichia coli TOP10"
quantity_measured = "shrunken log2 fold change"
quantitative_readout = 0.703

[[record]]
sequence_code = "RRIRGRPPRLPRPRPRPTGLPRP"
system = "Escherichia coli TOP10"
quantity_measured = "shrunken log2 fold change"
quantitative_readout = 0.885


Noted for RRIRCRPPRLPRPRPRPLPKPRP : its shrunken log2 fold change reads 0.258

// field: shrunken log2 fold change; key: RRIRSRPPRLPRPRPRPDWLPRP ; value = 0.153

response.value for RRIRHRPPRLPRPRPRPPIKPRP (field: shrunken log2 fold change) = -0.16

---

This listing pairs sequences with measured shrunken log2 fold change.
System: Escherichia coli TOP10
assay_explanation: shrunken log2 fold change of peptide-encoding DNA abundance (4.5 h post-induction vs induction); higher = less antimicrobial activity (less host growth inhibition)
test_context: time post-induction: 4.5 h; library: site-saturation at positions 5, 18, 19, 20
Note: the reply should be a number with no unit written.

[[record]]
sequence_code = "RRIRMRPPRLPRPRPRPEWQPRP"
quantity_measured = "shrunken log2 fold change"
quantitative_readout = 0.23

[[record]]
sequence_code = "RRIRWRPPRLPRPRPRPFNFPRP"
quantity_measured = "shrunken log2 fold change"
quantitative_readout = -0.272

[[record]]
sequence_code = "RRIRHRPPRLPRPRPRPCHPPRP"
quantity_measured = "shrunken log2 fold change"
quantitative_readout = -0.01


Now examine the next entry.
# shrunken log2 fold change of RRIRPRPPRLPRPRPRPWRTPRP = 0.141

---

Test system: Escherichia coli TOP10
assay_explanation: shrunken log2 fold change of peptide-encoding DNA abundance (4.5 h post-induction vs induction); higher = less antimicrobial activity (less host growth inhibition)
test_context: time post-induction: 4.5 h; library: site-saturation at positions 5, 18, 19, 20
Listed here: items and their measured shrunken log2 fold change.
Answer with a bare number; do not write a unit.

[[record]]
sequence_code = "RRIRTRPPRLPRPRPRPTVRPRP"
system = "Escherichia coli TOP10"
quantity_measured = "shrunken log2 fold change"
quantitative_readout = 2.09


Measured shrunken log2 fold change of RRIRIRPPRLPRPRPRPHNFPRP : -0.0684

// recorded shrunken log2 fold change for RRIRERPPRLPRPRPRPPAHPRP : 0.269

Looking up RRIRMRPPRLPRPRPRPNSWPRP , I see its shrunken log2 fold change listed as 0.122

---

Test system: Escherichia coli TOP10;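 also: peptides expressed intracellularly from a pBAD plasmid library in pooled LB shake-flask culture, induced with 0.3% L-arabinose, DNA abundance read by NGS, three biological replicates, DESeq2 with apeglm shrinkage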
assay_explanation: shrunken log2 fold change of peptide-encoding DNA abundance (4.5 h post-induction vs induction); higher = less antimicrobial activity (less host growth inhibition)
test_context: time post-induction: 4.5 h; library: site-saturation at positions 5, 18, 19, 20
quantity_measured: shrunken log2 fold change
Keep it simple and answer with nothing but the number.

[[record]]
sequence_code = "RRIRIRPPRLPRPRPRPWMDPRP"
quantitative_readout = 0.0312


Note to self: shrunken log2 fold change of RRIRTRPPRLPRPRPRPGEAPRP with Escherichia coli TOP10 was 0.282

Result for RRIRQRPPRLPRPRPRPNAYPRP , tested on Escherichia coli TOP10, shrunken log2 fold change: -0.279

shrunken log2 fold change for Escherichia coli TOP10 with input RRIRMRPPRLPRPRPRPRWDPRP equals 0.793

Kindly note: Escherichia coli TOP10, RRIRHRPPRLPRPRPRPFKRPRP , shrunken log2 fold change value reported: 0.0885

Response field shrunken log2 fold change (Escherichia coli TOP10) for item RRIRSRPPRLPRPRPRPAIPPRP : -0.139

Item RRIRKRPPRLPRPRPRPWFSPRP was tested on Escherichia coli TOP10; the reported shrunken log2 fold change is -0.329

For the sequence RRIRWRPPRLPRPRPRPDLQPRP , the measured shrunken log2 fold change on Escherichia coli TOP10 was -0.0193

Entry RRIRWRPPRLPRPRPRPEQKPRP , tested on Escherichia coli TOP10, has a reported shrunken log2 fold change of 0.0146

Assay Escherichia coli TOP10, sample RRIRSRPPRLPRPRPRPGRFPRP , shrunken log2 fold change read: 0.406

shrunken log2 fold change for Escherichia coli TOP10 with input RRIRMRPPRLPRPRPRPAPYPRP equals 0.576

Record for RRIRARPPRLPRPRPRPGWMPRP under target or system Escherichia coli TOP10: shrunken log2 fold change reported as -0.168
